tested on: U-2-OS (Osteosarcoma); test: combination Emax (second highest fraction inhibited in the dose matrix, 72 h); higher = more inhibition; extreme values may be limits of the assay
Measured Endpoint: combination Emax

What combination Emax appears in the records for this compound with U-2-OS (Osteosarcoma)? Cc1cc2ncnn2cc1Nc1ncc2c(n1)n(C1CCOCC1)c(=O)n2C [AZD7648] + COc1cc([C@@H]2c3cc4c(cc3[C@@H](O[C@@H]3O[C@@H]5CO[C@@H](C)O[C@H]5[C@H](O)[C@H]3O)[C@H]3COC(=O)[C@H]23)OCO4)cc(OC)c1O [Etoposide] (first compound max 10 µM, 7x7, partner max 10 µM)
0.647

Now consider Cc1nc(-c2cn3c(n2)-c2ccc(-c4cnn(C(C)(C)C(N)=O)c4)cc2OCC3)n(C(C)C)n1 [Taselisib] + O=C(Nc1ccc2[nH]nc(-c3ccncc3)c2c1)[C@@H]1CCN(CC(=O)N2CCN(c3ccc(-c4ncccn4)cc3)CC2)C1 [SCH772984] (first compound max 10 µM, 7x7, partner max 5 µM) and answer again.
0.993

Okay, and Cc1c2c(nn1C)CSCc1cc(n(C)n1)CSc1cc(c3ccccc3c1)OCCCc1c(C(=O)O)n(C)c3c-2c(Cl)ccc13 [AZD5991] + C[C@@H]1COCCN1C2=NC(=NC(=C2)C3(CC3)[S@](=N)(=O)C)C4=C5C=CNC5=NC=C4 [AZD6738] (first compound max 1 µM, 7x7, partner max 10 µM) ?
0.599

Same thing, different compound: COc1cccc(OCCCN)c1-c1cc(Nc2cnc(C#N)cn2)n[nH]1 [Prexasertib] + Cc1cc2ncnn2cc1Nc1ncc2c(n1)n(C1CCOCC1)c(=O)n2C [AZD7648] (first compound max 1 µM, 7x7, partner max 10 µM)
0.913

###

test system: CAS-1 (Glioblastoma); assay: Bliss excess, mean over the matrix (fraction); higher = more synergy;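 also: after 72 h of two-drug dosing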
Decide using Bliss excess: a value greater than or equal to -0.03 is Condition met, a smaller one is Condition not met.

Would you say CN(CCO)CC[C@H](CSc1ccccc1)Nc1ccc(S(=O)(=O)NC(=O)c2ccc(N3CCC([C@@H](O)c4ccccc4-c4ccc(Cl)cc4)CC3)cc2)cc1S(=O)(=O)C(F)(F)F [AZD4320] + Cc1cc2ncnn2cc1Nc1ncc2c(n1)n(C1CCOCC1)c(=O)n2C [AZD7648] (first compound max 1 µM, 7x7, partner max 10 µM) shows Bliss excess at minimum -0.03?
Condition not met

Would you kindly repeat that for C[C@@H](c1ccc2nccn2c1)n1nnc2ncc(-c3cnn(C)c3)nc21 [Savolitinib] + CC1(C)CCC(CN2CCN(c3ccc(C(=O)NS(=O)(=O)c4ccc(NCC5CCOCC5)c([N+](=O)[O-])c4)c(Oc4cnc5[nH]ccc5c4)c3)CC2)=C(c2ccc(Cl)cc2)C1 [Venetoclax] (first compound max 1 µM, 7x7, partner max 1 µM) ?
Condition not met

Field entry: COc1nnc2ccc(N3CCC(c4ccc(OCCN5CCN(C)C(=O)[C@H]5C)cc4)CC3)nn12 [AZD5153] + Cc1c2c(nn1C)CSCc1cc(n(C)n1)CSc1cc(c3ccccc3c1)OCCCc1c(C(=O)O)n(C)c3c-2c(Cl)ccc13 [AZD5991] (first compound max 1 µM, 7x7, partner max 1 µM)
Condition not met

Do the same for CC1(C)CCC(CN2CCN(c3ccc(C(=O)NS(=O)(=O)c4ccc(NCC5CCOCC5)c([N+](=O)[O-])c4)c(Oc4cnc5[nH]ccc5c4)c3)CC2)=C(c2ccc(Cl)cc2)C1 [Venetoclax] + COc1cc(Nc2ncc3c(n2)-c2ccc(Cl)cc2C(c2c(F)cccc2OC)=NC3)ccc1C(=O)O [Alisertib] (first compound max 1 µM, 7x7, partner max 10 µM) please
Condition not met

Entry CC(=O)Nc1cccc(-n2c(=O)n(C3CC3)c(=O)c3c(Nc4ccc(I)cc4F)n(C)c(=O)c(C)c32)c1 [Trametinib] + Cc1nc(-c2cn3c(n2)-c2ccc(-c4cnn(C(C)(C)C(N)=O)c4)cc2OCC3)n(C(C)C)n1 [Taselisib] (first compound max 1 µM, 7x7, partner max 10 µM) please
Condition met

For COc1cccc2c1C(=O)c1c(O)c3c(c(O)c1C2=O)C[C@@](O)(C(=O)CO)C[C@@H]3O[C@H]1C[C@H](N)[C@H](O)[C@H](C)O1 [Doxorubicin] + Cc1cc2ncnn2cc1Nc1ncc2c(n1)n(C1CCOCC1)c(=O)n2C [AZD7648] (first compound max 1 µM, 7x7, partner max 10 µM) then?
Condition met

Same again, this time with Cn1cnc2c(F)c(Nc3ccc(Br)cc3Cl)c(C(=O)NOCCO)cc21 [Selumetinib] + CC(C)n1c(=O)n(C)c2cnc3cc(F)c(-c4ccc(OCCCN5CCCCC5)nc4)cc3c21 [AZD1390] (first compound max 10 µM, 7x7, partner max 0.3 µM)
Condition not met

Next entry: Cc1c2c(nn1C)CSCc1cc(n(C)n1)CSc1cc(c3ccccc3c1)OCCCc1c(C(=O)O)n(C)c3c-2c(Cl)ccc13 [AZD5991] + Cc1cc2ncnn2cc1Nc1ncc2c(n1)n(C1CCOCC1)c(=O)n2C [AZD7648] (first compound max 1 µM, 7x7, partner max 10 µM)
Condition not met

Consider next the compound Cc1c2c(nn1C)CSCc1cc(n(C)n1)CSc1cc(c3ccccc3c1)OCCCc1c(C(=O)O)n(C)c3c-2c(Cl)ccc13 [AZD5991] + C[C@@H](Nc1cc(F)cc(F)c1)c1cc(C(=O)N(C)C)cc2c(=O)cc(N3CCOCC3)oc12 [AZD8186] (first compound max 1 µM, 7x7, partner max 3 µM) in the same way.
Condition met

Likewise for COc1nnc2ccc(N3CCC(c4ccc(OCCN5CCN(C)C(=O)[C@H]5C)cc4)CC3)nn12 [AZD5153] + CCN(CCO)CCCOc1ccc2c(Nc3cc(CC(=O)Nc4cccc(F)c4)[nH]n3)ncnc2c1 [AZD2811] (first compound max 1 µM, 7x7, partner max 1 µM) ?
Condition not met

Again, but for CCc1c2c(nc3ccc(O)cc13)-c1cc3c(c(=O)n1C2)COC(=O)[C@]3(O)CC [SN-38] + O=C(c1cc(Cc2n[nH]c(=O)c3ccccc23)ccc1F)N1CCN(C(=O)C2CC2)CC1 [Olaparib] (first compound max 0.3 µM, 7x7, partner max 10 µM)
Condition met
